Hello, the source for this data is ChEMBL document CHEMBL1146746, in case you need it.

k2 reference
# experiment-notes: Second order rate constant was determined for the reaction of compound with GSH in phosphate buffer at a pH of 8.5
readout-name: k2

>  <compound>
CC(=O)OC(CC#CCSc1ccc([N+](=O)[O-])cc1)Cn1ccnc1[N+](=O)[O-] (centres undefined)

>  <result>
0.8 m M-1 hr-1

$$$$
>  <compound>
O=C(O)CCC(=O)OC(CC#CCS(=O)(=O)c1ccc([N+](=O)[O-])cc1)Cn1ccnc1[N+](=O)[O-] (centres undefined)

>  <result>
8.6 m M-1 hr-1

$$$$
>  <compound>
CC(=O)OC(CC#CCS(=O)(=O)c1ccccc1)Cn1ccnc1[N+](=O)[O-] (centres undefined)

>  <result>
0.7 m M-1 hr-1

$$$$
>  <compound>
CC(=O)OC(CC#CCS(=O)(=O)c1ccc([N+](=O)[O-])cc1)Cn1ccnc1[N+](=O)[O-] (centres undefined)

>  <result>
17 m M-1 hr-1

$$$$
